# assay-system: 3H-Prazosine binding
# method-notes: 3H-Prazosine binding (displacement, rat brain membranes)
# test-conditions: 0.2 nM 3H-Prazosine, 30 minutes at room temperature
Where a name gives a salt, the structure may show the parent alone.
readout-type: IC50 (µM)
Numbers only, in µM.

# annotated cases, reported IC50 shown
Cc1ccc(CC2(O)CCN(C[C@@H]3Cc4cc(O)ccc4O3)CC2)cc1.Cl [Example 13, hydrochloride]	6
Cl.Oc1ccc2c(c1)C[C@@H](CN1CCC(O)(Cc3ccc(Cl)cc3)CC1)O2 [Example 14, hydrochloride]	6

Let's switch to this compound now.
Q. Look at this compound and give its reported IC50. Cc1ccc(CC2(O)CCN(CC3Cc4cc(O)ccc4C3O)CC2)cc1 (stereo not drawn) [Example 16, fumarate salt]
A. 5

* * *

Task for the reader: assign each of the following compounds its reported pIC50.
# assay-system: 3H-Prazosine binding
# method-notes: 3H-Prazosine binding (displacement, rat brain membranes)
# test-conditions: 0.2 nM 3H-Prazosine, 30 minutes at room temperature
Where a name gives a salt, the structure may show the parent alone.
Give bare numbers, as −log10 of the molar value.

Cc1ccc(CC2(O)CCN(CC3CCc4cc(O)ccc4C3)CC2)cc1 (racemic) [Example 30, hydrochloride]	6.10
Cc1ccc(CC2(O)CCN(CC3Cc4cc(O)ccc4O3)CC2)cc1 (racemic) [Example 2, hydrochloride]	5.49
CCc1ccc(CC2(O)CCN(CC3Cc4cc(O)ccc4O3)CC2)cc1.Cl (racemic) [Example 7, hydrochloride]	5.22

Now look at this entry.
Q. I am curious: what pIC50 value has been reported for CS(=O)(=O)Nc1ccc2c(c1)CC(CN1CCC(O)(Cc3ccc(Cl)cc3)CC1)O2 (racemic) [Example 22, hydrochloride] ?
A. 5.19

* * *

# assay-system: NMDA receptor (Rattus norvegicus, UniProt P35439+Q00960)
# Construct: Membranes were prepared by homogenization of the whole brain minus cerebellum and medulla oblongata
# Sequence (Q00960 27-1482, other chains not shown): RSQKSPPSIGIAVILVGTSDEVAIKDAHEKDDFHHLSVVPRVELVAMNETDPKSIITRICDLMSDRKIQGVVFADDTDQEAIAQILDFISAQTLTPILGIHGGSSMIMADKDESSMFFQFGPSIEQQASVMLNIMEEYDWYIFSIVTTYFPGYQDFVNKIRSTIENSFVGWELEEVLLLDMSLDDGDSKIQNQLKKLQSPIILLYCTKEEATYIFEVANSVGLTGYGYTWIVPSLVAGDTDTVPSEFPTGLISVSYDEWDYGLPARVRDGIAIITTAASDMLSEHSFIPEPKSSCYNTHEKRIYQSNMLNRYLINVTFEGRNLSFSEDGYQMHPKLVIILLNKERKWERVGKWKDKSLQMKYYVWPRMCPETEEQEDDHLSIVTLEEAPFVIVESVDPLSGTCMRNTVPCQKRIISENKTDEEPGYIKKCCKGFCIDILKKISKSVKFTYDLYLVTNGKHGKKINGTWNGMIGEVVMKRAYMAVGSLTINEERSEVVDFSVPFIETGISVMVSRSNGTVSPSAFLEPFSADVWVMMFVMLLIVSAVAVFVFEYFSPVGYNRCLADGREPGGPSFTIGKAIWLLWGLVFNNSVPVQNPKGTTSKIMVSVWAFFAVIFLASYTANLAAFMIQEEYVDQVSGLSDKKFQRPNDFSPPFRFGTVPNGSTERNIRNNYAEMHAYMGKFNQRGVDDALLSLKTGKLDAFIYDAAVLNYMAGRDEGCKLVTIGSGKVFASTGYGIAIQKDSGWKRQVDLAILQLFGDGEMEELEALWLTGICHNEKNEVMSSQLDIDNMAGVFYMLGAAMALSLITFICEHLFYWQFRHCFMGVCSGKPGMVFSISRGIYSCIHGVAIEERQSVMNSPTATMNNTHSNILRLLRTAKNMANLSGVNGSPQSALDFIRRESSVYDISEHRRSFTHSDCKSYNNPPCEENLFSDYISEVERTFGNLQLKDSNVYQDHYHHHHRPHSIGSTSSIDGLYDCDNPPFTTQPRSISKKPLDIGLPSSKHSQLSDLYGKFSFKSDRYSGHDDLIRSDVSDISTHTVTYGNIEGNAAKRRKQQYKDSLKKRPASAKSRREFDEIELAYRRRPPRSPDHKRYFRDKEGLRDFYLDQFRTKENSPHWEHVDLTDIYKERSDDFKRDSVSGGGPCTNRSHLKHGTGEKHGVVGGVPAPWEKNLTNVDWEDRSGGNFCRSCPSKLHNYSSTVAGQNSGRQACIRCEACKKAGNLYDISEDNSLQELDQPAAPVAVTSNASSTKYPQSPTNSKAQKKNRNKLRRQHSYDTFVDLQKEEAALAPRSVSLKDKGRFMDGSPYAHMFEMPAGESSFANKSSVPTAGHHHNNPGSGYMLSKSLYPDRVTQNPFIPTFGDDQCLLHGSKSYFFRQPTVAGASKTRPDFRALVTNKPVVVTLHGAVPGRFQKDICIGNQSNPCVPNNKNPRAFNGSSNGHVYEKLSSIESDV
# method-notes: 3H-Ro 25-6981 binding (displacement, rat brain membranes)
# test-conditions: 5 nM 3H-Ro 25-6981, 2 hours at 4°C
Counter-ions that a name gives are not always drawn.
readout-type: pIC50
One number for each entry, as −log10 of the molar value.

CCc1ccc(CC2(O)CCN(CC3Cc4cc(O)ccc4O3)CC2)cc1.Cl (racemic) [Example 7, hydrochloride]	7.92

For each listed entry, give its pIC50.
1. Cc1ccc(CC2(O)CCN(CC3Cc4cc(O)ccc4N3)CC2)cc1 (racemic) [Example 21]
2. Cc1ccc(CC2(O)CCN(CC3Cc4cc(O)ccc4O3)CC2)cc1 (racemic) [Example 2, hydrochloride]
3. Oc1ccc2c(c1)CC[C@H](CN1CCC(O)(Cc3ccccc3)CC1)[C@H]2O (racemic) [Example 29]
4. Cl.Oc1ccc2c(c1)C[C@@H](CN1CCC(O)(Cc3ccc(Cl)cc3)CC1)O2 [Example 14, hydrochloride]
5. Cc1ccc(CC2(O)CCN(CC3Cc4cc(O)ccc4C3O)CC2)cc1 (centres unmarked) [Example 16, fumarate salt]
6. Oc1ccc2c(c1)CC(CN1CCC(O)(Cc3ccc(F)cc3)CC1)O2 (racemic) [Example 5, hydrochloride]

A.
7.26
7.70
7.64
8.30
7.64
7.40

Q. Which pIC50 is reported for this compound? Cc1ccc(CC2(O)CCN(CC3CCc4cc(O)ccc4C3)CC2)cc1 (racemic) [Example 30, hydrochloride]
A. 7.70

* * *

# assay-system: NR1C + NR2B (Rattus norvegicus, UniProt P35439+Q00960)
# Construct: expressed in transfected cells; host or cells: Xenopus laevis oocytes, nuclear injection of pBC/CMV expression plasmids
# method-notes: Electrophysiology on recombinant NMDA receptors (voltage clamp, Xenopus laevis oocytes), NR1C + NR2B
# Assay type: cell-based
# test-conditions: 0.1 µM compound; oocytes clamped to -80 mV; 1.3 µM Glu plus 0.07 µM Gly; mean of four to six oocytes
Structures can show the parent of a compound that is named as a salt.
Mark Not fulfilled for Electrophysiology NR1C + NR2B % block by 0.1 µM values under 90%, and Fulfilled for everything at or above.

Cc1ccc(CC2(O)CCN(C[C@@H]3Cc4cc(O)ccc4O3)CC2)cc1.Cl	Fulfilled

Please look at the following compound next.
Q. Determine whether this compound has Electrophysiology NR1C + NR2B % block by 0.1 µM no lower than 90%: Cc1ccc(CC2(O)CCN(CC3Cc4cc(O)ccc4C3O)CC2)cc1 (centres unmarked) [Example 16, fumarate salt]
A. Not fulfilled
